Cited source for all entries: the supplement of paper PMC11451515

- Tested on: P12-Ichikawa
- Assay Procedure: cell viability relative to DMSO control; higher = less cytotoxic
- Experimental Conditions: HPLM + 10% dialyzed FBS; 48 h; 46.1 µM
Quantity Kind: cell viability (%)
# value in %; strip the unit string

• O=C(Nc1cc(Cl)cc2c1[nH]c1cnccc12)c1cccnc1 = 106
• COc1cc(F)c(F)c(Nc2ccc(I)cc2F)c1N[S+](=O)([O-])C1(C[C@H](O)CO)CC1 = 42.7
• COc1ccc([C@@H]2CC(=O)c3c(O)cc(O[C@@H]4O[C@H](CO[C@@H]5O[C@@H](C)[C@H](O)[C@@H](O)[C@H]5O)[C@@H](O)[C@H](O)[C@H]4O)cc3O2)cc1O = 116
• C[C@H]1C[C@@H]2[C@H](CC[C@@]3(C)[C@H]2CC[C@]3(OC(C)=O)C(C)=O)[C@@]\4(C)CCC(=O)\C=C14 = 107

# input for lookup
Task: Param readout = cell viability; param system = P12-Ichikawa; param query = CC(C)OC(=O)C(C(=O)OC(C)C)=C1S\C=C/S1 ; response: value
Output: 101
